This listing pairs molecules with measured IFN-γ levels, average.
Test system: IFN-γ
Assay: IFN-γ levels in sera upon i.v. glycolipid administration to C57BL/6 mice (ELISA)
Type: in vivo
Parameters: unit not given here
Conditions: C57BL/6, serum, hour 12
measure name: IFN-γ levels, average

CCCCCCCCCCCCCCCCCC/C=C/CCCCCCCCC(=O)N[C@@H](/C=C/[C@H]1O[C@H](CO)[C@H](O)[C@H](O)[C@H]1O)[C@H](O)[C@H](O)CCCCCCCCCCCCCC | 4323
CCCCCCCCCCCCCCCCCCCCCCCCCC(=O)N[C@@H](CC[C@H]1O[C@H](CO)[C@H](O)[C@H](O)[C@H]1O)[C@H](O)[C@H](O)CCCCCCCCCCCCCC [CRONY, reference compound] | 2512.5
CCCCCCCCCCCCCCCCCCCCCCCCCCCCC(=O)N[C@@H](/C=C/[C@H]1O[C@H](CO)[C@H](O)[C@H](O)[C@H]1O)[C@H](O)[C@H](O)CCCCCCCCCCCCCC | 2932
CCCCCCCCCCCCCCCCCCCCCCCCCC(=O)N[C@@H](CO[C@H]1O[C@H](CO)[C@H](O)[C@H](O)[C@H]1O)[C@H](O)[C@H](O)CCCCCCCCCCCCCC [KRN, reference compound] | 5352.5
CCCCCCCCCCCCCC[C@@H](O)[C@@H](O)[C@H](CC[C@H]1O[C@H](CO)[C@H](O)[C@H](O)[C@H]1O)NC(=O)CCCCCCCCCCCCCCCCCCCOCCCCCC | 2335.5
CCCCCCCCCCCCCCCCC/C=C/CCCCCCCCC(=O)N[C@@H](CC[C@H]1O[C@H](CO)[C@H](O)[C@H](O)[C@H]1O)[C@H](O)[C@H](O)CCCCCCCCCCCCCC | 2440.5
CCCCCCCCCCCCCC[C@@H](O)[C@@H](O)[C@H](CC[C@H]1O[C@H](CO)[C@H](O)[C@H](O)[C@H]1O)NC(=O)CCCCCCCCCCCCCCCCCCCOCCCCC | 2108
